Value source: ChEMBL document CHEMBL2384906

# Lookup of reported inhibition in vivo at 200 mg/kg keyed by entry
test system: Mus musculus; test: Antiinflammatory activity in mouse assessed as inhibition of carrageenan-induced increase in paw volume at 200 mg/kg administered 1 hr prior to carrageenan challenge measured after 3 hrs relative to control; format: functional
State just the number; it will be interpreted in %.

The cases that follow already have their inhibition in vivo at 200 mg/kg on record.
{"MOLECULAR STRING": "COc1cc(/C=C/C(O)=C/C(/C=C/c2ccc(O)c(OC)c2)=N/c2ccc(S(=O)(=O)Nc3ccccn3)cc2)ccc1O", "VALUE REPORTED": 37}
{"MOLECULAR STRING": "COc1ccc(NS(=O)(=O)c2ccc(/N=C(\\C=C\\c3ccc(O)c(OC)c3)CC(/C=C/c3ccc(O)c(OC)c3)=N/c3ccc(S(=O)(=O)Nc4ccc(OC)nn4)cc3)cc2)nn1", "VALUE REPORTED": 33.8}
{"MOLECULAR STRING": "COc1cc(/C=C/C(=O)C(/N=N/c2ccc(S(=O)(=O)Nc3cc(C)on3)cc2)=C(O)/C=C/c2ccc(O)c(OC)c2)ccc1O", "VALUE REPORTED": 14.5}
{"MOLECULAR STRING": "COc1cc(/C=C/c2nn(-c3ccccc3)c(/C=C/c3ccc(O)c(OC)c3)c2/N=N/c2ccc(S(=O)(=O)Nc3nc(C)cc(C)n3)cc2)ccc1O", "VALUE REPORTED": 37}
{"MOLECULAR STRING": "COc1cc(/C=C/C(O)=C/C(/C=C/c2ccc(O)c(OC)c2)=N/c2ccc(S(=O)(=O)Nc3cc(C)on3)cc2)ccc1O", "VALUE REPORTED": 33.8}
{"MOLECULAR STRING": "COc1cc(/C=C/c2nn(-c3ccccc3)c(/C=C/c3ccc(O)c(OC)c3)c2/N=N/c2ccc(S(N)(=O)=O)cc2)ccc1O", "VALUE REPORTED": 22.5}

Asked: Quickly give me recorded inhibition in vivo at 200 mg/kg for `COc1cc(/C=C/C(O)=C/C(/C=C/c2ccc(O)c(OC)c2)=N/c2ccc(S(=O)(=O)Nc3nc(C)cc(C)n3)cc2)ccc1O`
Given back: 38.7
